Tested on: MOLT-4 leukemia
Method Notes: NCI-60 one-dose screen, 48 h
Assay Setup: 10 µM unless noted
About 83,000 compounds went through this panel and 20% of them were active in at least one assay; those are over-represented in the sample as a whole. Activity calls are given as the source filed them. The calls were made as follows: active = growth percent below 10; inactive = the rest.
Output constraint: value belongs to active, inactive

Input line: # lookup: test call for CCCCCCCCCCCC(=O)OCCNC(=O)C[n+]1ccccc1
Output line: inactive

Input line: Outcome logged for COc1ccc(Cl)cc1NC(=O)c1cc2c([nH]1)-c1nc(NC(=O)C(C)C)sc1CC2 in this assay:
Output line: inactive

Input line: For NS(=O)(=O)c1ccc(Nc2nc(O)c(/C=C3\C=Nc4ccccc43)s2)cc1 , which call appears in the assay record?
Output line: inactive

Input line: What call does the record list for COc1ccc2c(c1)O/C(=C/c1ccc(OCC(=O)Nc3ccc(S(N)(=O)=O)cc3)cc1)C2=O ?
Output line: inactive

Input line: For COc1ccc(-c2nn(-c3cccc(Cl)c3)cc2-c2cc(-c3ccc(Br)cc3)[nH]c(=O)c2C#N)cc1 , what call appears in the results of this test?
Output line: inactive

Input line: Could you check what this test reported for CCOc1ccc(Cc2nccc3cc(OCC)c(OCC)cc23)cc1OCC ?
Output line: inactive

Input line: How did this test come out for C=C1C(=O)O[C@H]2[C@H]1CC/C(COC(=O)c1ccc(Br)cc1)=C\CC[C@@]1(C)O[C@@H]21 ?
Output line: active

Input line: # outcome recorded in this test, key = O=c1nc(N2CCOCC2)oc2c(-c3cccc4ccccc34)cccc12
Output line: inactive

Input line: Test call, this compound: Cc1ccc(Cn2cc(COc3ccc4c5ccnc(C)c5n(CCCc5ccccc5)c4c3)nn2)cc1
Output line: inactive

Input line: Recorded call for COc1ccc(C2=NN(C(=O)COc3ccc(Cl)cc3)C(O)(c3cc(F)c(Cl)cc3Cl)C2)cc1 (stereo unspecified) ?
Output line: inactive

Input line: Recorded call for CCC1CN2C(=N1)c1ccccc1-c1cc(Cl)ccc12 (stereo unspecified) ?
Output line: active
